# credit: paper PMC5540273

- Tested on: CDC2L2
- condition.notes: concentration: 1 μM, replicates: in singlicate; n = 1;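 note: KINOMEscan kinase panel screen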
property.label: %Inh

• Cl.O=C(Nc1ccc(Oc2ccc3[nH]c(NC(=O)c4ccco4)nc3c2)cc1)Nc1cc(C(F)(F)F)ccc1F = 1%
• CC(C)(C)c1ccc(C(=O)Nc2cn3cc(-n4ccnc4)ccc3n2)cc1 = 1%

Reported %Inh for "COC(=O)Nc1nc2cc(Oc3ccc(NC(=O)Nc4cccc(SC)c4)cc3)ccc2[nH]1.Cl" was 1%

* * *

- System: S6K1
- condition.notes: concentration: 1 μM, replicates: in singlicate; n = 1
property.label: %Inh (%)
I only need the number, in %, no unit after it.

• COc1ccc(C)c(Nc2ccnc(Nc3ccc(-c4cnc[nH]4)cc3)n2)c1.Cl = 0
• Fc1cc(Cl)ccc1Nc1ccnc2cc(-c3ccc(CN4CCSCC4)o3)ccc12 = 0
• Nc1ncnc2scc(-c3ccc(NC(=O)Cc4cc(F)ccc4F)cc3)c12.O=C(O)C(F)(F)F = 46

Entry "CC(=O)Nc1cn2nc(Oc3cccc(NC(=O)c4cccc(C(F)(F)F)c4)c3)ccc2n1" , tested on S6K1, has a reported %Inh of 0

So the reported %Inh for "O=C(Nc1n[nH]c2nc(-c3cccc(O)c3)ccc12)C1CC1" , on S6K1, turned out to be 0
